# Test system: HEK-293T
# test_protocol: Multiplex assay against HEK293T
# Assay type: toxicity, cell-based
# test_conditions: human, 12 h, 1 µM, compound concentration 1 uM, replicate 2
Population Fragmented Nuclei (%) strictly under 6% means MET; at 6% or over means NOT MET.

item_smiles	assigned_class
CCOc1c2c(c(OCC)c3ncccc13)CN(c1ccc(CS(=O)(=O)NC(=O)Cc3ccccc3OC)cc1C)C2=O	MET
CCCC(CCC)C(=O)O	MET
Oc1c(CN2CCN(c3ccccn3)CC2)cc(Cl)c2cccnc12	MET
O=C(NCC(=O)N1CC[C@H](N[C@H]2CC[C@@](O)(c3ccc(-c4ncccn4)cn3)CC2)C1)c1cccc(C(F)(F)F)c1	MET

Lab note: confirm whether the reported Population Fragmented Nuclei (%) for this compound is below 6%, equality not counting. compound: Cc1ccc(/C(=C\CN2CCCC2)c2ccccn2)cc1
MET

Lab note: confirm whether the reported Population Fragmented Nuclei (%) for this compound is below 6%, equality not counting. compound: O=C(O)c1cc2ccccc2c(Cc2c(O)c(C(=O)O)cc3ccccc23)c1O
NOT MET

Lab note: confirm whether the reported Population Fragmented Nuclei (%) for this compound is below 6%, equality not counting. compound: CC1(COc2ccc3c(c2)ncn3-c2ccc3cccc(N4CCC(N)CC4)c3n2)COC1
NOT MET

Lab note: confirm whether the reported Population Fragmented Nuclei (%) for this compound is below 6%, equality not counting. compound: CC[C@H]1OC(=O)[C@H](C)[C@@H](O[C@H]2C[C@@](C)(OC)[C@@H](O)[C@H](C)O2)[C@H](C)[C@@H](O[C@@H]2O[C@H](C)C[C@H](N(C)C)[C@H]2O)[C@@]2(C)CC(C)=C(O2)[C@H](C)[C@@H](O)[C@]1(C)O
MET

Lab note: confirm whether the reported Population Fragmented Nuclei (%) for this compound is below 6%, equality not counting. compound: O=C1COc2nccc(-c3ccccc3F)c2CN1Cc1cc(C(F)(F)F)cc(C(F)(F)F)c1
MET

Lab note: confirm whether the reported Population Fragmented Nuclei (%) for this compound is below 6%, equality not counting. compound: C[C@@H]1C[C@H]2[C@@H]3CCC4=CC(=O)C=C[C@]4(C)[C@@]3(F)[C@@H](O)C[C@]2(C)[C@@]1(O)C(=O)CO
NOT MET

Lab note: confirm whether the reported Population Fragmented Nuclei (%) for this compound is below 6%, equality not counting. compound: C[C@H]1[C@H]2CC[C@H]3[C@@H]4CC=C5C[C@@H](N(C)C)CC[C@]5(C)[C@H]4CC[C@]23CN1C
MET

Lab note: confirm whether the reported Population Fragmented Nuclei (%) for this compound is below 6%, equality not counting. compound: O=C(NCCO)c1cccc(-c2cc(Nc3ccc(OC(F)(F)F)cc3)ncn2)c1
MET

Lab note: confirm whether the reported Population Fragmented Nuclei (%) for this compound is below 6%, equality not counting. compound: CN1CCN(c2nc3cc(C(F)(F)F)ccc3n3cccc23)CC1.O=C(O)/C=C\C(=O)O.O=C(O)/C=C\C(=O)O
NOT MET

Lab note: confirm whether the reported Population Fragmented Nuclei (%) for this compound is below 6%, equality not counting. compound: COc1c(C)cc(NC(=O)c2nn(Cc3ccc(F)cc3)c3c2CN(C(=O)c2ccc[nH]2)C[C@]3(C)C(N)=O)cc1C
NOT MET
